test.description: Cytotoxicity against human MRC5 cells assessed as reduction in cell viability incubated for 24 hrs by MTS assay
Assay type: cell-based
conditions.used: read-out: LC50
Non-standard residues stand in square brackets, D forms with d. Residues, ends and D or L forms follow the SMILES beside them. Nspe = C[C@H](NCC(=O)O)c1ccccc1; Nlys = NCCCCNCC(=O)O

compound	CC50 at 24 h, µM
C[C@@H](c1ccccc1)N(CC(=O)N(CCCCN)CC(=O)N(CC(=O)N(CC(=O)N(CCCCN)CC(=O)N(CC(=O)N(CC(=O)N(CCCCN)CC(N)=O)[C@@H](C)c1ccccc1)[C@@H](C)c1ccccc1)[C@@H](C)c1ccccc1)[C@@H](C)c1ccccc1)C(=O)CN(C(=O)CNCCCCN)[C@@H](C)c1ccccc1 (H-[Nlys][Nspe][Nspe][Nlys][Nspe][Nspe][Nlys][Nspe][Nspe][Nlys]-NH2)	80.5
C[C@@H](c1ccccc1)N(CC(=O)N(CCCCN)CC(=O)N(CC(=O)N(CC(=O)N(CCCCN)CC(=O)N(CC(=O)N(CC(=O)N(CCCCN)CC(=O)N(CC(=O)N(CC(=O)N(CCCCN)CC(N)=O)[C@@H](C)c1ccccc1)[C@@H](C)c1ccccc1)[C@@H](C)c1ccccc1)[C@@H](C)c1ccccc1)[C@@H](C)c1ccccc1)[C@@H](C)c1ccccc1)C(=O)CN(C(=O)CNCCCCN)[C@@H](C)c1ccccc1 (H-[Nlys][Nspe][Nspe][Nlys][Nspe][Nspe][Nlys][Nspe][Nspe][Nlys][Nspe][Nspe][Nlys]-NH2)	10
C[C@H](c1ccccc1)N(CC(N)=O)C(=O)CN(C(=O)CN(CCCCN)C(=O)CN(C(=O)CN(C(=O)CN(CCCCN)C(=O)CN(C(=O)CN(C(=O)CNCCCCN)[C@H](C)c1ccccc1)[C@@H](C)c1ccccc1)[C@H](C)c1ccccc1)[C@@H](C)c1ccccc1)[C@H](C)c1ccccc1 (stereo in doubt)	40

====

test.description: Cytotoxicity against human LNCAP cells assessed as reduction in cell viability incubated for 24 hrs by MTS assay
Assay type: cell-based
conditions.used: read-out: LC50
assay.endpoint: CC50 at 24 h (µM)

compound	measured.value
C[C@@H](c1ccc(F)cc1)N(CC(N)=O)C(=O)CN(C(=O)CN(CCCCN)C(=O)CN(C(=O)CN(C(=O)CN(CCCCN)C(=O)CN(C(=O)CN(C(=O)CN(CCCCN)C(=O)CN(C(=O)CN(C(=O)CNCCCCN)[C@@H](C)c1ccc(F)cc1)[C@@H](C)c1ccc(F)cc1)[C@@H](C)c1ccc(F)cc1)[C@@H](C)c1ccc(F)cc1)[C@@H](C)c1ccc(F)cc1)[C@@H](C)c1ccc(F)cc1)[C@@H](C)c1ccc(F)cc1	9.5
C[C@H](c1ccccc1)N(CC(N)=O)C(=O)CN(C(=O)CN(CCCCN)C(=O)CN(C(=O)CN(C(=O)CN(CCCCN)C(=O)CN(C(=O)CN(C(=O)CNCCCCN)[C@H](C)c1ccccc1)[C@@H](C)c1ccccc1)[C@H](C)c1ccccc1)[C@@H](C)c1ccccc1)[C@H](C)c1ccccc1 (stereo in doubt)	27
Cc1ccc([C@H](C)N(CC(N)=O)C(=O)CN(C(=O)CN(CCCCN)C(=O)CN(C(=O)CN(C(=O)CN(CCCCN)C(=O)CN(C(=O)CN(C(=O)CN(CCCCN)C(=O)CN(C(=O)CN(C(=O)CNCCCCN)[C@@H](C)c2ccc(C)cc2)[C@@H](C)c2ccc(C)cc2)[C@@H](C)c2ccc(C)cc2)[C@@H](C)c2ccc(C)cc2)[C@@H](C)c2ccc(C)cc2)[C@@H](C)c2ccc(C)cc2)[C@@H](C)c2ccc(C)cc2)cc1	12
